Where these numbers come from: ChEMBL document CHEMBL5260813

Measured IC50 values are reported for all entries that follow.
Tested on: HT-29
Assay: Antiproliferative activity against human HT-29 cells assessed as inhibition of cell growth by SRB assay
Format: functional, cell-based

Sample records with IC50:
{"columns": ["Compound", "Test target", "IC50"],
 "data": [
  ["COc1nc2ccccc2[n+]([O-])n1", "HT-29", "> 300 nM"],
  ["CN(C)CCNc1nc2ccccc2[n+]([O-])n1", "HT-29", "> 1000 nM"],
  ["Nc1nc2ccccc2[n+]([O-])n1", "HT-29", "> 500 nM"],
  ["CN(C)CCCNc1nc2ccccc2[n+]([O-])n1", "HT-29", "830 nM"],
  ["CNCCNc1nc2ccccc2[n+]([O-])n1", "HT-29", "2300 nM"]
]}

Exam item: Name the recorded IC50 of the item `CCc1nc2ccccc2[n+]([O-])n1` in your answer.
Marked response: > 3000 nM

Exam item: Name the recorded IC50 of the item `N#CCNc1nc2ccccc2[n+]([O-])n1` in your answer.
Marked response: > 300 nM

Exam item: Name the recorded IC50 of the item `[O-][n+]1nc(CCO)nc2ccccc21` in your answer.
Marked response: > 3000 nM
